Biological target: Paired box protein Pax-6 (Homo sapiens) (UniProt P26367)
Sequence (P26367 whole entry, looked up): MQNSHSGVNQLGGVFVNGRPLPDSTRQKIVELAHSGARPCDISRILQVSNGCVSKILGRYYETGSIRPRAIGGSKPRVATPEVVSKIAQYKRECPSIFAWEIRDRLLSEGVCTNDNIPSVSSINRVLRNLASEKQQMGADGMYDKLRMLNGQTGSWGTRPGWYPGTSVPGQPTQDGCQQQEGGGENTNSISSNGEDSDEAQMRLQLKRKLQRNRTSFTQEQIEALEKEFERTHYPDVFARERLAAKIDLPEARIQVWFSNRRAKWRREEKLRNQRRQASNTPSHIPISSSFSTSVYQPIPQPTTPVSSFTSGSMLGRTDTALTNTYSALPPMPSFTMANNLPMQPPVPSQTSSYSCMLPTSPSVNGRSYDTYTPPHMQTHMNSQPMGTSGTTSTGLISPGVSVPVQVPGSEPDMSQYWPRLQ
Experiment: ATG_Pax6_CIS: Attagene CIS-FACTORIAL HepG2 Assay for human Paired Box 6 (PAX6) (AID 2282956)
Conditions: HepG2 CIS-FACTORIAL PAX6 reporter transcription, RNA readout; actives raise or lower the signal
The source made the active and inactive calls. Rule for the calls: active = hit-call score of the fitted dose curve at least 0.9, where 1 is the maximum; inactive = score below 0.9.
Pick from active, inactive when you respond.

MOLECULE	SYSTEM	QUALITATIVE_LABEL
CCOC(=O)C(C#N)=C(c1ccccc1)c1ccccc1	Paired box protein Pax-6 (Homo sapiens) (UniProt P26367)	active

Next, consider the following molecule.
Please let me know the test result on file for CCc1cc(Cc2cc(CC)cc(C(C)(C)C)c2O)c(O)c(C(C)(C)C)c1 .
active
